Kindly state self-splicing fitness (ln) for each of the entries shown.
Assay: self-splicing fitness, log relative to wild type (ln ratio); higher = more splicing; Tetrahymena group I intron in knt gene, E. coli kanamycin selection, DiMSum; sequences stand for … in CUCUCU…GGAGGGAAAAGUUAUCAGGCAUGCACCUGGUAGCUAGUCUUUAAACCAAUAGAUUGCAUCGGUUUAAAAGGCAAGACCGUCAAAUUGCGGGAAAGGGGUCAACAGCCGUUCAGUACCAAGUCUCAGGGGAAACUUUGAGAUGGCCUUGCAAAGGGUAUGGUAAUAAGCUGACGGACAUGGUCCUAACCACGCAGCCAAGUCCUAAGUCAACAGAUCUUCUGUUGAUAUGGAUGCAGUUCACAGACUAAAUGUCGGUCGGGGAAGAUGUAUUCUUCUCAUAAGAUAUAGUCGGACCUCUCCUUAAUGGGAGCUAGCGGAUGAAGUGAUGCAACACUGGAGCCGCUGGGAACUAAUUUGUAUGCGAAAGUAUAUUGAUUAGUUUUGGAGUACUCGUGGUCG;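 further: selection with 25 µg/mL kanamycin versus none on LB agar overnight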
Settings: 37 °C
Just the number.

The reported value for CCCUAGCAAUAUUACGCUUU in terms of self-splicing fitness (ln) is -2.49

The reported value for UAUUAGCAAUAUUACGAAUA in terms of self-splicing fitness (ln) is -0.292

The reported value for AUGUAGCAAUAUUACGGUUG in terms of self-splicing fitness (ln) is -1.99

The reported value for AUAAAGCAAUAUUACGUGGC in terms of self-splicing fitness (ln) is -2.69

The reported value for GUAUAGCAAUAUUACGGGAC in terms of self-splicing fitness (ln) is -1.07

The reported value for ACAUAGCAAUAUUACGAUUC in terms of self-splicing fitness (ln) is -1.52

The reported value for AAAAAGCAAUAUUACGCGAG in terms of self-splicing fitness (ln) is -1.06

The reported value for GACUAGCAAUAUUACGGUAA in terms of self-splicing fitness (ln) is -0.197

The reported value for CCCAAGCAAUAUUACGGCAC in terms of self-splicing fitness (ln) is -2.5

The reported value for AGACAGCAAUAUUACGCCGG in terms of self-splicing fitness (ln) is -1.67

The reported value for GCUCAGCAAUAUUACGAAGA in terms of self-splicing fitness (ln) is -0.863

The reported value for UCCUAGCAAUAUUACGUGAU in terms of self-splicing fitness (ln) is -1.9

The reported value for GAUAAGCAAUAUUACGGCGU in terms of self-splicing fitness (ln) is 0.486

The reported value for AGACAGCAAUAUUACGGAGG in terms of self-splicing fitness (ln) is -2.48

The reported value for GAAGAGCAAUAUUACGCAAA in terms of self-splicing fitness (ln) is -2.69

The reported value for CACCAGCAAUAUUACGAAUC in terms of self-splicing fitness (ln) is -0.445

The reported value for AAGAAGCAAUAUUACGACUU in terms of self-splicing fitness (ln) is -0.819

The reported value for GUACAGCAAUAUUACGAUCG in terms of self-splicing fitness (ln) is -0.932

The reported value for CCUUAGCAAUAUUACGGUAU in terms of self-splicing fitness (ln) is -2.67

The reported value for CGCCAGCAAUAUUACGCAGC in terms of self-splicing fitness (ln) is -2.4

The reported value for AGACAGCAAUAUUACGACGG in terms of self-splicing fitness (ln) is -1.86

The reported value for AAGCAGCAAUAUUACGGCUC in terms of self-splicing fitness (ln) is -0.463

The reported value for UUGCAGCAAUAUUACGUACU in terms of self-splicing fitness (ln) is -0.848

The reported value for GCACAGCAAUAUUACGCAGC in terms of self-splicing fitness (ln) is -1.85

The reported value for CUCCAGCAAUAUUACGGAGA in terms of self-splicing fitness (ln) is -2.21

The reported value for ACCCAGCAAUAUUACGACAG in terms of self-splicing fitness (ln) is -1.67

The reported value for UGGAAGCAAUAUUACGCAAA in terms of self-splicing fitness (ln) is -0.937

The reported value for AGGUAGCAAUAUUACGAACA in terms of self-splicing fitness (ln) is -0.342

The reported value for GUUAAGCAAUAUUACGUCAG in terms of self-splicing fitness (ln) is -2.22

The reported value for CAAGAGCAAUAUUACGUGGG in terms of self-splicing fitness (ln) is -2.64

The reported value for CUGAAGCAAUAUUACGCGCG in terms of self-splicing fitness (ln) is -0.0678

The reported value for AGUCAGCAAUAUUACGACCA in terms of self-splicing fitness (ln) is 0.345

The reported value for UAUGAGCAAUAUUACGUCAA in terms of self-splicing fitness (ln) is -2.59

The reported value for AAGUAGCAAUAUUACGACCG in terms of self-splicing fitness (ln) is -1.35

The reported value for AUCAAGCAAUAUUACGCUCG in terms of self-splicing fitness (ln) is -0.236

The reported value for AUGCAGCAAUAUUACGGCAA in terms of self-splicing fitness (ln) is 0.0922

The reported value for AUCCAGCAAUAUUACGGUCG in terms of self-splicing fitness (ln) is 0.12

The reported value for UGCAAGCAAUAUUACGCGCG in terms of self-splicing fitness (ln) is -0.733

The reported value for GUUCAGCAAUAUUACGUAGU in terms of self-splicing fitness (ln) is 0.369

The reported value for ACCUAGCAAUAUUACGCCUA in terms of self-splicing fitness (ln) is -2.38

The reported value for UCAAAGCAAUAUUACGCCAA in terms of self-splicing fitness (ln) is -2.12

The reported value for CACGAGCAAUAUUACGUAAA in terms of self-splicing fitness (ln) is -1.83

The reported value for ACCCAGCAAUAUUACGCAGG in terms of self-splicing fitness (ln) is -2.48

The reported value for UCCUAGCAAUAUUACGUGUA in terms of self-splicing fitness (ln) is -1.09

The reported value for ACAAAGCAAUAUUACGGCGU in terms of self-splicing fitness (ln) is -1.17

The reported value for UCGCAGCAAUAUUACGUGAC in terms of self-splicing fitness (ln) is -2.41

The reported value for UUAAAGCAAUAUUACGCCUA in terms of self-splicing fitness (ln) is 0.8

The reported value for GAGGAGCAAUAUUACGGGUG in terms of self-splicing fitness (ln) is -1.95

The reported value for GCGUAGCAAUAUUACGACCG in terms of self-splicing fitness (ln) is -0.0305

The reported value for GAACAGCAAUAUUACGUUAC in terms of self-splicing fitness (ln) is -1.32

The reported value for UCUAAGCAAUAUUACGGAUG in terms of self-splicing fitness (ln) is -1.99

The reported value for CAGAAGCAAUAUUACGAAUC in terms of self-splicing fitness (ln) is -1.93

The reported value for CGACAGCAAUAUUACGCAAA in terms of self-splicing fitness (ln) is -3.08

The reported value for GAAAAGCAAUAUUACGAACA in terms of self-splicing fitness (ln) is 0.0828

The reported value for GCUGAGCAAUAUUACGUUAG in terms of self-splicing fitness (ln) is -1.74

The reported value for AAUGAGCAAUAUUACGCUUC in terms of self-splicing fitness (ln) is -1.71

The reported value for GGGUAGCAAUAUUACGUUGA in terms of self-splicing fitness (ln) is -0.495

The reported value for UUAGAGCAAUAUUACGAACA in terms of self-splicing fitness (ln) is -0.84

The reported value for CGAUAGCAAUAUUACGAGGC in terms of self-splicing fitness (ln) is -1.95

The reported value for UAUGAGCAAUAUUACGGGAG in terms of self-splicing fitness (ln) is -2.95

The reported value for AUUAAGCAAUAUUACGUUGU in terms of self-splicing fitness (ln) is -2.8

The reported value for UUCCAGCAAUAUUACGCGUU in terms of self-splicing fitness (ln) is -1.6

The reported value for CAUUAGCAAUAUUACGCAUU in terms of self-splicing fitness (ln) is -1.62

The reported value for AAGCAGCAAUAUUACGUAGU in terms of self-splicing fitness (ln) is -2.47

The reported value for CCUUAGCAAUAUUACGCGUC in terms of self-splicing fitness (ln) is -2.91

The reported value for AUAAAGCAAUAUUACGACUC in terms of self-splicing fitness (ln) is 0.324

The reported value for GGUUAGCAAUAUUACGUUUC in terms of self-splicing fitness (ln) is -0.645
